target: T1, SNAP tagged-CXC4 receptor labeled with terbium (Tag-lite CXCR4 cells, HEK293) (UniProt P61073 1-352, SNAP tag labeled with terbium fluorescent dye); test: HTRF competition on Tag-lite CXCR4 HEK293 cells; competitor labelled CXCL12
T1 construct: whole, on cells; Bought frozen cells (PerkinElmer-CisBio), HEK293 transiently expressing the receptor; also called terbium labeled CXCR receptor
T1 sequence (P61073 whole entry): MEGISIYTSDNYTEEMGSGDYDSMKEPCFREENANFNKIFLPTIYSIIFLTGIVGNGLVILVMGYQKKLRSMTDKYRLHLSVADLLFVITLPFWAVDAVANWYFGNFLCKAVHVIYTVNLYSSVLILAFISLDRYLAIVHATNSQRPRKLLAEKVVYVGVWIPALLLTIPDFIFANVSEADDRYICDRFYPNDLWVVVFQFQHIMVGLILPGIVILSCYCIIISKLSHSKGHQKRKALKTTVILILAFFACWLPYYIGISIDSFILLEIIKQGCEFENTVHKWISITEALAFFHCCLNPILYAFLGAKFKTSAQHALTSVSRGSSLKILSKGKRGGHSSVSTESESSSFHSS
Square brackets hold non-standard residues; d marks the D form. Ends that are not written are not given here.
Would you mind telling me the reported pIC50 of each entry?
In textbook form, pIC50 equals minus log to base ten of the concentration in mol/L.

Value of pIC50 reported for the binder LRDYHHSVRSSLRPYTK [SEQ ID NO: 36] is 5.22

Value of pIC50 reported for the binder [dA]ERYHHSVRSSLRPYTK [SEQ ID NO: 34] is 5.34

Value of pIC50 reported for the binder LERYHHTVRSSLRPYTK [SEQ ID NO: 39] is 8.10

Value of pIC50 reported for the binder LRRFHHSVRSSLRPYTK [SEQ ID NO: 53] is 6.97

Value of pIC50 reported for the binder LRRYHHSVRSSLRPYTK [SEQ ID NO: 3] is 6.30

Value of pIC50 reported for the binder LRRYHHSVRSTLRPYTK [SEQ ID NO: 71] is 6.88

Value of pIC50 reported for the binder LERYHHS[dA]RSSLRGYTK [SEQ ID NO: 81] is 7.64
